Data credit: ChEMBL document CHEMBL4004842

pIC50 overview
biological target: Proteasome Macropain subunit MB1 (Homo sapiens); assay: Inhibition of chymotrypsin-like activity of human 20S proteasome using Suc-Leu-Leu-Val-Tyr-AMC as substrate by fluorescence assay
pIC50: −log10 of the molar value.
quantity: pIC50

>>> print(df.to_string())
                      smiles_representation  reading
0  CC(C)C[C@H](NC(=O)[C@H](Cc1ccccc1)NC1=CC(=O)c2ccccc2C1=O)B(O)O     7.94
1  CC(C)C[C@H](NC(=O)CNC1=CC(=O)c2ccccc2C1=O)B(O)O     7.64
2  CC(C)C[C@H](NC(=O)[C@H](CC(C)C)NC1=CC(=O)c2ccccc2C1=O)B(O)O     7.35
3  CC(C)C[C@H](NC(=O)[C@H](Cc1ccccc1)NC1=C(Cl)C(=O)c2ccccc2C1=O)B(O)O     7.61
4  CC1=C(N[C@@H](Cc2ccccc2)C(=O)N[C@@H](CC(C)C)B(O)O)C(=O)c2ccccc2C1=O     7.59

====

This section presents molecules with their documented inhibition values.
Target: Proteasome Macropain subunit MB1 (Homo sapiens) (UniProt P28074)
Sequence (whole entry): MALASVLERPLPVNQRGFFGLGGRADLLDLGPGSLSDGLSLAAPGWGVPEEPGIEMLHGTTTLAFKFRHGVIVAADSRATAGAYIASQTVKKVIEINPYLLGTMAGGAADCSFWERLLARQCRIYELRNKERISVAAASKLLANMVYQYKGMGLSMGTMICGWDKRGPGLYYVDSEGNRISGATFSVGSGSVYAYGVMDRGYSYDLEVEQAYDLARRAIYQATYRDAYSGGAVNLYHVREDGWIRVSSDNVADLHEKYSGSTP
Assay: Inhibition of chymotrypsin-like activity of human 20S proteasome at 100 nM using Suc-Leu-Leu-Val-Tyr-AMC as substrate by fluorescence assay relative to control
quantity: inhibition (%)

In [3]: df
Out[3]:
                       smiles_representation    quantity  reading
 0  CC1=C(NCC(=O)N[C@@H](CC(C)C)B(O)O)C(=O)c2ccccc2C1=O  inhibition     65.9
 1  CC1=C(N[C@@H](CC(C)C)C(=O)N[C@@H](CC(C)C)B(O)O)C(=O)c2ccccc2C1=O  inhibition     31.4
 2  CC(C)C[C@H](NC(=O)CNC1=C(Cl)C(=O)c2ccccc2C1=O)B(O)O  inhibition     67.7
 3  CC(C)C[C@H](NC(=O)[C@H](CC(C)C)NC1=C(Cl)C(=O)c2ccccc2C1=O)B(O)O  inhibition     43.5
 4  CC(C)C[C@H](NC(=O)[C@H](CC(C)C)NC1=CC(=O)c2ccccc2C1=O)B(O)O  inhibition     79.8
 5  CC(C)C[C@H](NC(=O)[C@H](Cc1ccccc1)NC1=CC(=O)c2ccccc2C1=O)B(O)O  inhibition     90.3
 6  CC(C)C[C@H](NC(=O)[C@H](C)NC1=CC(=O)c2ccccc2C1=O)B(O)O  inhibition     67.5
 7  CC1=C(N[C@H](C(=O)N[C@@H](CC(C)C)B(O)O)C(C)C)C(=O)c2ccccc2C1=O  inhibition     42.3
 8  CC(C)C[C@H](NC(=O)[C@H](Cc1ccccc1)NC1=C(Cl)C(=O)c2ccccc2C1=O)B(O)O  inhibition     86.7
 9  CC1=C(N[C@@H](C)C(=O)N[C@@H](CC(C)C)B(O)O)C(=O)c2ccccc2C1=O  inhibition     52.3
10  CC(C)C[C@H](NC(=O)CNC1=CC(=O)c2ccccc2C1=O)B(O)O  inhibition     84.9
11  CC1=C(N[C@@H](Cc2ccccc2)C(=O)N[C@@H](CC(C)C)B(O)O)C(=O)c2ccccc2C1=O  inhibition     84.7
12  CC(C)C[C@H](NC(=O)[C@@H](NC1=CC(=O)c2ccccc2C1=O)C(C)C)B(O)O  inhibition     69.2
13  CC(C)C[C@H](NC(=O)[C@H](C)NC1=C(Cl)C(=O)c2ccccc2C1=O)B(O)O  inhibition     64.8
14  CC(C)C[C@H](NC(=O)[C@@H](NC1=C(Cl)C(=O)c2ccccc2C1=O)C(C)C)B(O)O  inhibition     47.4
